- PROTOCOL: yeast display, Sf9 membrane polyspecificity reagent, FACS + sequencing; frameworks hold sequencing errors
MEASURED_ATTRIBUTE: polyreactivity (PSR sort gate)

Illustrative cases are given below, each with its answer.
{"columns": ["MACROMOLECULE_SEQUENCE", "polyreactivity (PSR sort gate)"],
 "data": [
  ["QEQLVESGGGLVQAGGSLRLICADSGRTLVYYGMGWYRQAPGKERELVAAISGSGGRTYYADSVKGRFTISRDNAKNTVYLQMNSLKPEDTAVYYCAALCRSYPAKYASYDYCGQGTQVTVSS", "high polyreactivity"],
  ["QVQLVESGGGLVQAGGSLRLSCAASGRIFRYYAMGWYRQAPGKERELVAAISRGGSTNYADSVKGRFTISRDNAKNTVYLQMNSLKPEDTAVYYCAAVYHSRVWYGYDSKFEYWGQGTQVTVSS", "high polyreactivity"],
  ["QVQLVESGGGLVQAGGSLRLSCAASGSISYQNAMGWYRQAPGKERELVAAISGDGDSTYYADSVKGRFTISRDNAKNTVYLQMNSLKPEDTAVYYCAAEPNVYFSVFVLFPSDYWGQGTQVTVSS", "low polyreactivity"],
  ["QVQLVESGGGLVQAGGSLRLSCAASGSFFSTYAMGWYRQAPGKERELVAAISVSGSSTYYADSVKGLFTISRDNAKNTVYLQMNSLKPEDTAVYYCNKAFRSVRPRRRYDYWGQGTQVTVSS", "low polyreactivity"]
]}

IN: Any idea what polyreactivity (PSR sort gate) was measured for QVQLVESGGGLVQAGGSLRLSCAASGYIFVRNAMGWYRQAPGKERELVAAISGSGGSTYYADSVKGRFTISRDNAKNTVYLQMNSLKPEDTAVYYFAADYATVTWRGIAYDYWGQGTQVSVSS ?
OUT: low polyreactivity

IN: Any idea what polyreactivity (PSR sort gate) was measured for FVQAGGSLRLSCAASGFIFGVYDMGWYRQAPGKERELVAAIDSVGSTYYADSVKGRFTISRDNAKNTVYLQMNSLNPEDTAVYYCAKDGSYQAYGYWGQGTQVTVSS ?
OUT: low polyreactivity

IN: Any idea what polyreactivity (PSR sort gate) was measured for QVQLVESGGGLVQAGGSLRLSCAASGSIFASYDMGWYRQAPGKERELVARITFNGGSTYYADSVKGRFTISRDNAKNTVYLQMNSLKPEDTAVYYCANDYRYIFIYPYGWTRYDYWGQGTQVTVSS ?
OUT: low polyreactivity

IN: Any idea what polyreactivity (PSR sort gate) was measured for QVQLVESGGGLVQAGGSLRLSSAASGIIFRDNAMGWYRQAPGKERELVAAIDSSGGTTYADSVKGRFTISRDNAKNTVYLQMNSLKPEDTAVYYCATEVYWTVSYYGYDYYGGNYYYWGQGTQVTVSS ?
OUT: low polyreactivity

IN: Any idea what polyreactivity (PSR sort gate) was measured for QVQLVESGGGLVQAGGSLRLSCAASGFIFGPYAMGWYRQAPGKERELVASISWSGGRTYYADSVKGRFTISRDNAKNTVYLQMNSLKPEDTAVYYCAADLPVIRGYRSNRFGYWGQGTQVTVSS ?
OUT: high polyreactivity

IN: Any idea what polyreactivity (PSR sort gate) was measured for QVQLLESGGGLVQAGGSIRLSCSASGRTFARYVMGWYRQAPGKERELVASISNSGGSTYYSDSVKGRFTISRDNAQNTVYLQMNSLKPEDTEVYYCARRYYYYTTYRYDYWGQGTQVTVSS ?
OUT: high polyreactivity

IN: Any idea what polyreactivity (PSR sort gate) was measured for QVQLVESGGGLVQAGGSLSLSCAASGLIFLQYGMGWYREAPGKERELVAAITTRGGRTYYADSVKRRFTISRDNAKNTVYLQMNSLKPEDTAVYYCAADSEQDNLRYYRWVWYYYWGQGTQVTVSS ?
OUT: low polyreactivity

IN: Any idea what polyreactivity (PSR sort gate) was measured for QVQLVESGGGLVQAGGSLRLSCAASGSTFYPYAMGWYRQAPGKERELVAGIRSGGSTNYADSVKGRFTISRDNAKNTVYLQMNSLKPEDTAVYYCAARRWRTQDRSHFDYWGQGTQVTVSS ?
OUT: low polyreactivity

IN: Any idea what polyreactivity (PSR sort gate) was measured for QVQLVESGGGLVNAGVSLLLSCAASGYIFVQYAMGWNRQAHVKERELVAAISKSGSSTYYADSVKGRFTISRDNAKNTVFLLINSLKPADSAVYYCAVVYTYVSGFTYGYWGQGTQVIVSS ?
OUT: low polyreactivity

IN: Any idea what polyreactivity (PSR sort gate) was measured for QVQLVESGGGLVQAGGSLRLSCAASGSIFTVNAMGWYRQAPGKERELVAAISSGGSTHYADSVKGRFTISRDNAKNTVYLQMNSLKPEDTAVYYCAAVYVPYYGYSTRYDYWGQGTQVTVSS ?
OUT: low polyreactivity

Every entry's value here was drawn from the nanobody polyreactivity screen of Harvey et al. (2022).
